Experiment: in vivo
Details: NMRI, mouse, ip
Method: Acute Toxicity after Intraperitoneal Administration The acute toxicity after intraperitoneal administration of the test substances was determined with NMRI mice (20 to 25 g) and SD rats (120 to 195 g). The test substance was suspended in a 1% strength sodium carboxymethyl-cellulose solution. […] After 3 weeks, the acute toxicity was determined by the method of Litchfield and Wilcoxon.
Quick reference: LD50 at 3 weeks of the listed items.

| STRUCTURE_SMILES_STRING | LD50 at 3 weeks / mg/kg |
| --- | --- |
| Cc1oncc1C(=O)Nc1ccc(C(F)(F)F)cc1 | 185 |
| C/C(O)=C(\C#N)C(=O)Nc1ccc(C(F)(F)F)cc1 | 150 |

// provenance: patent US7402601B2
